// reported inhibition in vivo at 0.01 mg/kg for each item listed
- Tested on: cch-evoked bronchoconstriction
- procedure-summary: Experimental bronchospasm (carbachol-induced bronchoconstriction, Konzett & Roessler)
- Format: in vivo, Male CD Sprague Dawley rats
- condition-parameters: iv; rat, dose 10 μg/Kg intratracheal, 1 hour after administration, carbachol 80 μg/kg i.v.; read-out: Inhibition % (±s.e. mean) of cch-evoked bronchoconstriction
State the answer as a number, implicitly in %.

Data request: Requested field: inhibition in vivo at 0.01 mg/kg. Item: CNCCNc1ccc(NC(=O)c2cccc(CNc3ncc(-c4ccnc(N)n4)c4c3CCO4)c2)nc1 [Example 70]
Data returned: 62.2

Data provenance is patent US20240092791A1.
